// reported MIC for each item listed
# Test system: M. tuberculosis Erdman
# experiment summary: MIC vs M. tuberculosis Erdman
# Assay type: cell-based
# condition: Mycobacterium tuberculosis, Bactec, strain panel, read-out: MIC Erdman

# compound, target under test, cmp, MIC, mg/L
records = [
    ("CCOC(=O)/C(CCc1ccccc1)=N\\NC(=O)c1ccncc1", "M. tuberculosis Erdman", "=", 0.1),
    ("CC1C/C(=N/NC(=O)c2ccncc2)CC(C)(C)C1 (stereo not shown)", "M. tuberculosis Erdman", "<", 0.1),
    ("CC(C)=CCCC(C)C/C=N/NC(=O)c1ccncc1 (stereo not shown)", "M. tuberculosis Erdman", "<", 0.1),
    ("O=C(N/N=C/C=C(c1ccccc1)c1ccccc1)c1ccncc1", "M. tuberculosis Erdman", "=", 0.1),
]
